Entries and their Binding Inhibitory Ratio
target: Human MC4R (Homo sapiens); construct: expressed in transfected cells; plasmid pMC4R in vector pMSR alpha neo; test: [125I]-[Nle4,D-Phe7]-α-MSH binding inhibition in CHO/MC4R cells; details: test compound 10 μM, 100 pM [125I]-[Nle4,D-Phe7]-α-MSH, room temperature, 60 minutes
Sequence (P32245 whole entry): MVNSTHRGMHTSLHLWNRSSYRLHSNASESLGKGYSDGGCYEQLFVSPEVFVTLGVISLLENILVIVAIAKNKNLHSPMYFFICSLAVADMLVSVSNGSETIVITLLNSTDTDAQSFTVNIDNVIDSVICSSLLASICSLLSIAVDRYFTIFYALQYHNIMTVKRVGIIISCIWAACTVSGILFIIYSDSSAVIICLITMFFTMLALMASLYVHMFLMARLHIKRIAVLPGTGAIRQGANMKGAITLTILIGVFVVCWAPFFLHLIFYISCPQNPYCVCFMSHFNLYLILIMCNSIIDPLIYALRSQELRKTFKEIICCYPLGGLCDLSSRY
Where a name gives a salt, the structure may show the parent alone.
The reply should contain only the number, in %.

Example compounds with recorded Binding Inhibitory Ratio:
CC(c1cccc(-c2ccccc2C(=O)NCCN)c1)N(C(=O)Cc1ccc(Cl)c(Cl)c1)C1CCN(Cc2ccccc2)CC1 (centres unmarked) [Example 9, dihydrochloride]    100
CC(c1cccc(-c2ccccc2C(=O)NCCN)c1)N(C(=O)Cc1ccc(Cl)cc1)C1CCN(Cc2ccccc2)CC1 (centres unmarked) [Example 3, dihydrochloride]    97
CC(c1cccc(-c2ccccc2C(=O)NCCN)c1)N(C(=O)Cc1cccc(Cl)c1)C1CCN(Cc2ccccc2)CC1 (centres unmarked) [Example 4, dihydrochloride]    92

Dear colleague, please send me the reported Binding Inhibitory Ratio for CC(c1cccc(-c2ccccc2C(=O)NCCN)c1)N(C(=O)Cc1ccc2ccccc2c1)C1CCN(Cc2ccccc2)CC1 (centres unmarked) [Example 1, dihydrochloride] when you can.
96

Dear colleague, please send me the reported Binding Inhibitory Ratio for CC(c1cccc(-c2ccccc2C(=O)NCCN)c1)N(C(=O)Cc1ccc(Br)cc1)C1CCN(Cc2ccccc2)CC1 (centres unmarked) [Example 2, dihydrochloride] when you can.
97

The origin of these recorded values is patent US7507753B2.
